From: ChEMBL document CHEMBL5154804

measurement_target: CYP1A2 (Homo sapiens)
Sequence (P05177 whole entry): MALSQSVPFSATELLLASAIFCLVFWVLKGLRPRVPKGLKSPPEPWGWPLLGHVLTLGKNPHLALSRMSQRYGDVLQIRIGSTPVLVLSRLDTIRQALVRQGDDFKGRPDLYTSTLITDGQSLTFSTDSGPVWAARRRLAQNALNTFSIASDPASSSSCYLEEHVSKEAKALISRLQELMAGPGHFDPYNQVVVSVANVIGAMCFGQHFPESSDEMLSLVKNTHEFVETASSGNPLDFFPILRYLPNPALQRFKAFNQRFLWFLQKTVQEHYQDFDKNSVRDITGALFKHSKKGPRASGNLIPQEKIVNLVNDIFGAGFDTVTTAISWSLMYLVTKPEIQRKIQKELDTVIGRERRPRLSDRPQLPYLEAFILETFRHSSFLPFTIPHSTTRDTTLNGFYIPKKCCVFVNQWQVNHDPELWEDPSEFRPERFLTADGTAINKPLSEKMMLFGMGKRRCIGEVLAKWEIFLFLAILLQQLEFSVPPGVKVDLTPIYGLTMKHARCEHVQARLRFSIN
experiment_description: Inhibition of CYP1A2 in human liver microsome at 10 uM using phenacetin as substrate incubated for 10 mins in presence of NADPH cofactor and fluconazole by LC-MS/MS analysis
Assay type: ADME
test_conditions: liver microsomes, probe phenacetin
endpoint: inhibition at 10 min, 10 µM (%)
The figure you give is taken to be in %; do not add the unit.

Task: So what inhibition at 10 min, 10 µM did CCNC(=O)c1noc(-c2cc(-c3ccc(C)cc3)c(O)cc2O)c1-c1ccc(CN2CCOCC2)cc1 get with CYP1A2 (Homo sapiens)?
Result: 17.8

###

measurement_target: CYP3A4 (Homo sapiens)
Sequence (P08684 whole entry): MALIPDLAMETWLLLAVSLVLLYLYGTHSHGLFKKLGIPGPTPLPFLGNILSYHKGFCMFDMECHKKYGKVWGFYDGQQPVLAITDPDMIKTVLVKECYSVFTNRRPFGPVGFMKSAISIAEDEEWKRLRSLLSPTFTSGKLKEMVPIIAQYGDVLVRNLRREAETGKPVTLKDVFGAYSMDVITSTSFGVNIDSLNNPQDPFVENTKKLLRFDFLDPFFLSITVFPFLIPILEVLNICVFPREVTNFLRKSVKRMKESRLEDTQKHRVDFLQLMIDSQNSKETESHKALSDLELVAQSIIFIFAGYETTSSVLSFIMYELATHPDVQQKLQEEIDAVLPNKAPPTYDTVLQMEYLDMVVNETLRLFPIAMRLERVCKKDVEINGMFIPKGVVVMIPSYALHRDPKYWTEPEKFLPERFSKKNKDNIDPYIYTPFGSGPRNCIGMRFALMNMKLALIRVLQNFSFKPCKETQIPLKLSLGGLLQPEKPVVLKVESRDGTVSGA
experiment_description: Inhibition of CYP3A4 in human liver microsome at 10 uM using midazolam as substrate incubated for 10 mins in presence of NADPH cofactor and fluconazole by LC-MS/MS analysis
Format: ADME
test_conditions: liver microsomes, probe midazolam
endpoint: inhibition at 10 min, 10 µM (%)
Report only the number, with the unit % understood.

Task: Could you share which inhibition at 10 min, 10 µM value was measured for CCNC(=O)c1noc(-c2cc(-c3ccc(C)cc3)c(O)cc2O)c1-c1ccc(CN2CCOCC2)cc1 ?
Result: 39.3

###

experiment_description: Cytotoxicity against mouse NIH3T3 cell assessed as inhibition of cell growth after 24 hrs by MTT assay
Format: toxicity, cell-based
test_conditions: NIH3T3 cells
endpoint: IC50 at 24 h
Write your answer as a measured quantity: the number, then the unit.

Task: Can you look up the measured IC50 at 24 h of CNC(=O)c1noc(-c2cc(-c3ccc(C)cc3)c(O)cc2O)c1-c1ccc(CN2CCCCC2)cc1 for me?
Result: 0.46 µM

Task: Requested read-out: IC50 at 24 h. Entry: CNC(=O)c1noc(-c2cc(-c3ccc(C)cc3)c(O)cc2O)c1-c1ccc(CN2CCOCC2)cc1
Result: 8.63 µM

Task: IC50 at 24 h lookup needed for CCNC(=O)c1noc(-c2cc(-c3ccc(C)cc3)c(O)cc2O)c1-c1ccc(CN2CCOCC2)cc1 , thanks.
Result: 21.3 µM

Task: Can you share its IC50 at 24 h? I mean this compound: CCNC(=O)c1noc(-c2cc(-c3ccc(C)cc3)c(O)cc2O)c1-c1ccc(CN2CCCCC2)cc1
Result: 0.73 µM

###

experiment_description: Cytotoxicity against human THLE-2 cell assessed as inhibition of cell growth after 24 hrs by MTT assay
Assay type: toxicity, cell-based
test_conditions: THLE-2 cells
endpoint: IC50 at 24 h (µM)
Answer in µM, number only, no unit symbol.

Task: Given CNC(=O)c1noc(-c2cc(-c3ccc(C)cc3)c(O)cc2O)c1-c1ccc(CN2CCOCC2)cc1 , state its recorded IC50 at 24 h.
Result: 10.6

Task: Looking for the measured IC50 at 24 h of CCNC(=O)c1noc(-c2cc(-c3ccc(C)cc3)c(O)cc2O)c1-c1ccc(CN2CCOCC2)cc1 , can you help?
Result: 7.15

Task: # lookup: IC50 at 24 h of CCNC(=O)c1noc(-c2cc(-c3ccc(C)cc3)c(O)cc2O)c1-c1ccc(CN2CCCCC2)cc1
Result: 5.72

Task: Returns the measured IC50 at 24 h for the input compound. Input: CNC(=O)c1noc(-c2cc(-c3ccc(C)cc3)c(O)cc2O)c1-c1ccc(CN2CCCCC2)cc1
Result: 2.79

###

Test system: Candida albicans
experiment_description: Synergistic antifungal activity against fluconazole-resistant Candida albicans 632 assessed as inhibition of fungal growth in presence of fluconazole by checker board microdilution assay
Type: functional
Assign MIC80 to each entry below.
Write it as a number; the unit µg/mL goes unstated.

Task: Sample Cc1ccc(-c2cc(-c3onc(C(=O)NC4CCC4)c3-c3ccc(CN4CCCCC4)cc3)c(O)cc2O)cc1 — what was its MIC80?
Result: 1

Task: If you can, please state the reported MIC80 value of CNC(=O)c1noc(-c2cc(-c3ccc(C)cc3)c(O)cc2O)c1-c1ccc(CN2CCOCC2)cc1 .
Result: 0.5

###

Provide the reported CLint of each item.
experiment_description: Metabolic stability in human liver microsomes assessed as intrinsic clearance in presence of NADPH cofactor under shaking condition for 10 mins measured after 5 to 60 mins by LC-MS/MS analysis
Assay type: ADME, Microsome
test_conditions: time 15-70 min
Answer in mL/min/kg, number only, no unit symbol.

Task: Any idea what its CLint is? The compound is CCNC(=O)c1noc(-c2cc(-c3cccc(Cl)c3)c(O)cc2O)c1-c1ccc(CN2CCOCC2)cc1
Result: 64.8

Task: CLint for CCNC(=O)c1noc(-c2cc(-c3ccc(C)cc3)c(O)cc2O)c1-c1ccc(CN2CCCCC2)cc1 ?
Result: 28.8

Task: Using the record for CCNC(=O)c1noc(-c2cc(-c3cccc(C(C)C)c3)c(O)cc2O)c1-c1ccc(CN2CCOCC2)cc1 , report its CLint.
Result: 82.7

###

measurement_target: CYP2C19 (Homo sapiens, UniProt P33261)
Sequence (P33261 whole entry): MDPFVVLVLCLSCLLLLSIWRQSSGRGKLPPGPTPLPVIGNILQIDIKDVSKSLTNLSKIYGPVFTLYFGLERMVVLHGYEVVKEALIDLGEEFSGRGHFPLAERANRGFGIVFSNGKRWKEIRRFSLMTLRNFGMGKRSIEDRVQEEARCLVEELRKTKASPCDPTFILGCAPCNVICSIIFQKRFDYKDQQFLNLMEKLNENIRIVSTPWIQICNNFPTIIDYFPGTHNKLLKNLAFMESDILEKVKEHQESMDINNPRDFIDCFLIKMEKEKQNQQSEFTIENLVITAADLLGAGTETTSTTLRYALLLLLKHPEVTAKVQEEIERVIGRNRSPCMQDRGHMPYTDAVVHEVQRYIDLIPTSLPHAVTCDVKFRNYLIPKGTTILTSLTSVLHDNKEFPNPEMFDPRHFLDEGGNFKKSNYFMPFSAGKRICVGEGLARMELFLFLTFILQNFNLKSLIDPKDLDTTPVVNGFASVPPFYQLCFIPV
experiment_description: Inhibition of CYP2C19 in human liver microsome at 10 uM using S-mephenytoin as substrate incubated for 10 mins in presence of NADPH cofactor by LC-MS/MS analysis
Type: ADME
test_conditions: liver microsomes, probe S-mephenytoin
endpoint: inhibition at 10 min, 10 µM

Task: Looking for the measured inhibition at 10 min, 10 µM of CCNC(=O)c1noc(-c2cc(-c3ccc(C)cc3)c(O)cc2O)c1-c1ccc(CN2CCCCC2)cc1 , can you help?
Result: 25.4%

Task: Give the measured inhibition at 10 min, 10 µM of CCNC(=O)c1noc(-c2cc(-c3ccc(C)cc3)c(O)cc2O)c1-c1ccc(CN2CCOCC2)cc1 .
Result: 22.2%

Task: Would you kindly share the measured inhibition at 10 min, 10 µM for CNC(=O)c1noc(-c2cc(-c3ccc(C)cc3)c(O)cc2O)c1-c1ccc(CN2CCCCC2)cc1 ?
Result: 48.5%

Task: Given CNC(=O)c1noc(-c2cc(-c3ccc(C)cc3)c(O)cc2O)c1-c1ccc(CN2CCOCC2)cc1 , state its recorded inhibition at 10 min, 10 µM.
Result: 18.6%

###

experiment_description: Cytotoxicity against mouse BV-2 cell assessed as inhibition of cell growth after 24 hrs by MTT assay
Format: toxicity, cell-based
test_conditions: BV-2 cells
endpoint: IC50 at 24 h (µM)
Answer with a number only, understood to be in µM.

Task: Returns the measured IC50 at 24 h for the input molecule. Input: CCNC(=O)c1noc(-c2cc(-c3ccc(C)cc3)c(O)cc2O)c1-c1ccc(CN2CCCCC2)cc1
Result: 4.06

Task: Quick one: IC50 at 24 h of CCNC(=O)c1noc(-c2cc(-c3ccc(C)cc3)c(O)cc2O)c1-c1ccc(CN2CCOCC2)cc1 ?
Result: 10.3

Task: Need IC50 at 24 h of CNC(=O)c1noc(-c2cc(-c3ccc(C)cc3)c(O)cc2O)c1-c1ccc(CN2CCCCC2)cc1 , thanks.
Result: 3.04

Task: Dear colleague, I am looking for the recorded IC50 at 24 h of the following molecule: CNC(=O)c1noc(-c2cc(-c3ccc(C)cc3)c(O)cc2O)c1-c1ccc(CN2CCOCC2)cc1
Result: 11.1

###

measurement_target: UniProt:P33261
experiment_description: Inhibition of CYP2C19 in human liver microsome at 10 uM using S-mephenytoin as substrate incubated for 10 mins in presence of NADPH cofactor and fluconazole by LC-MS/MS analysis
Type: ADME
test_conditions: liver microsomes, probe S-mephenytoin
endpoint: inhibition at 10 min, 10 µM (%)
Form entry: value (%) — number only.

Task: Form field: reported inhibition at 10 min, 10 µM of CCNC(=O)c1noc(-c2cc(-c3ccc(C)cc3)c(O)cc2O)c1-c1ccc(CN2CCOCC2)cc1
Result: 56.9

###

measurement_target: CYP2C9 (Homo sapiens, UniProt P11712)
Sequence (P11712 whole entry): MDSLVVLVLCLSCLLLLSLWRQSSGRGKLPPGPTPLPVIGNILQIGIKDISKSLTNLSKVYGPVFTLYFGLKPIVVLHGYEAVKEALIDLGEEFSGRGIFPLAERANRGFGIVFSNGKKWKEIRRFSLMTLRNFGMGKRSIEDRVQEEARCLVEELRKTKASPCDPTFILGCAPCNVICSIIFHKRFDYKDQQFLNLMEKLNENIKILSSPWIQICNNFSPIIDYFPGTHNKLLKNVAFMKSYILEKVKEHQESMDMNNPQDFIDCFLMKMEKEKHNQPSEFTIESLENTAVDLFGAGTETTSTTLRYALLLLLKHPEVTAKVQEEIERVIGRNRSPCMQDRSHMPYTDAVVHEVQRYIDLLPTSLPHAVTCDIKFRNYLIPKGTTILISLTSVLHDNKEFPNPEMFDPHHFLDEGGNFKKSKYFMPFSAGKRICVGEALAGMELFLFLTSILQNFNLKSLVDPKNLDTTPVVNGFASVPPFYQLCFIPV
experiment_description: Inhibition of CYP2C9 in human liver microsome at 10 uM using diclofenac as substrate incubated for 10 mins in presence of NADPH cofactor and fluconazole by LC-MS/MS analysis
Assay type: ADME
test_conditions: liver microsomes, probe diclofenac
endpoint: inhibition at 10 min, 10 µM (%)
Numbers only here, please. The scale is %.

Task: Lab note: need inhibition at 10 min, 10 µM with CYP2C9 (Homo sapiens, UniProt P11712) for entry CCNC(=O)c1noc(-c2cc(-c3ccc(C)cc3)c(O)cc2O)c1-c1ccc(CN2CCOCC2)cc1 , please look it up.
Result: 56.1

###

Test system: Candida albicans
experiment_description: Antifungal activity against fluconazole-resistant Candida albicans 103 assessed as inhibition of fungal growth by checker board microdilution assay
Type: functional
Exercise: for every item that follows, state its recorded MIC80.

Task: I'd like to know its MIC80. The molecule in question is CNC(=O)c1noc(-c2cc(-c3ccc(C)cc3)c(O)cc2O)c1-c1ccc(CN2CCCCC2)cc1
Result: > 64 µg/mL

Task: Which value of MIC80 has been reported for CNC(=O)c1noc(-c2cc(-c3ccc(C)cc3)c(O)cc2O)c1-c1ccc(CN2CCOCC2)cc1 in the records?
Result: > 64 µg/mL

Task: May I ask what MIC80 has been recorded for CCNC(=O)c1noc(-c2cc(-c3ccc(C)cc3)c(O)cc2O)c1-c1ccc(CN2CCOCC2)cc1 ?
Result: > 64 µg/mL

Task: What value of measured MIC80 is listed for CCNC(=O)c1noc(-c2cc(-c3ccc(C)cc3)c(O)cc2O)c1-c1ccc(CN2CCCCC2)cc1 ?
Result: > 64 µg/mL

Task: Look at this molecule and give its reported MIC80. OC(Cn1cncn1)(Cn1cncn1)c1ccc(F)cc1F
Result: 64 µg/mL
